Data provenance: ChEMBL document CHEMBL1138404

- ASSAY TEXT: Cytotoxicity against human SK-OV-3 cell line
- Type: cell-based
- CONDITION DESCRIPTION: SK-OV-3 cells, read-out: ED50 (the source's name)
Returns: string. Value is TRUE if measured CC50 is below 6 µg/mL, and FALSE if it is greater than or equal to it.

CC50 under 6 µg/mL? Item: O=C1N[C@H](c2c[nH]c3cc(Br)ccc23)CN[C@H]1c1c[nH]c2ccccc12 FALSE

CC50 under 6 µg/mL? Item: O=C(C1=NC(c2c[nH]c3cc(Br)ccc23)CN1)c1c[nH]c2cc(Br)ccc12 (stereo unspecified) TRUE

CC50 under 6 µg/mL? Item: O=C1NC[C@@H](c2c[nH]c3ccccc23)N[C@H]1c1c[nH]c2ccccc12 FALSE

CC50 under 6 µg/mL? Item: O=C1N[C@@H](c2c[nH]c3ccccc23)CN=C1c1c[nH]c2ccccc12 FALSE

CC50 under 6 µg/mL? Item: O=C1NC[C@H](c2c[nH]c3cc(Br)ccc23)N=C1c1c[nH]c2cc(Br)ccc12 TRUE

---

Please go through the items and note down their CC50.
- ASSAY TEXT: Cytotoxicity against human XF498 cell line
- Assay type: cell-based
- CONDITION DESCRIPTION: XF498 cells, read-out: ED50 (the source's name)
State just the number; it will be interpreted in µg/mL.

Look up CC50 of O=C(C1=NC(c2c[nH]c3cc(Br)ccc23)CN1)c1c[nH]c2cc(Br)ccc12 (stereo not drawn) and report it. 5.16

Look up CC50 of O=C1NC[C@@H](c2c[nH]c3cc(Br)ccc23)N[C@H]1c1c[nH]c2ccccc12 and report it. 6.8

Look up CC50 of O=C1NC[C@@H](c2c[nH]c3ccccc23)N[C@H]1c1c[nH]c2cc(Br)ccc12 and report it. 9.74

Look up CC50 of O=C(C1=NC(c2c[nH]c3cc(Br)ccc23)CN1)c1c[nH]c2ccccc12 (stereo not drawn) and report it. 7.22

Look up CC50 of O=C1NC[C@H](c2c[nH]c3cc(Br)ccc23)N=C1c1c[nH]c2cc(Br)ccc12 and report it. 2.93

Look up CC50 of O=C1N[C@@H](c2c[nH]c3cc(Br)ccc23)CN=C1c1c[nH]c2cc(Br)ccc12 and report it. 5.6

---

- ASSAY TEXT: Cytotoxicity against human A549 cell line
- Format: cell-based
- CONDITION DESCRIPTION: A549 cells, read-out: ED50 (the source's name)
Please go through the items and note down their CC50.
State just the number; it will be interpreted in µg/mL.

Look up CC50 of COc1cccc2c1C(=O)c1c(O)c3c(c(O)c1C2=O)C[C@@](O)(C(=O)CO)C[C@@H]3O[C@H]1C[C@H](N)[C@H](O)[C@H](C)O1 and report it. 0.01

Look up CC50 of O=C1NC[C@@H](c2c[nH]c3ccccc23)N[C@H]1c1c[nH]c2cc(Br)ccc12 and report it. 9.67

Look up CC50 of O=C1NC[C@@H](c2c[nH]c3ccccc23)N=C1c1c[nH]c2ccccc12 and report it. 11.7

Look up CC50 of O=C(C1=NC(c2c[nH]c3cc(Br)ccc23)CN1)c1c[nH]c2cc(Br)ccc12 (stereo unspecified) and report it. 5.22
